assay: chemical genetic growth profiling, strain panel (AID 1159580);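 also: tested at 20 µM; growth read once vehicle control cultures reached saturation at 30 °C; 1 = growth at the plate median or of vehicle wells; lower values mean less growth of the strain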; conditions: S. cerevisiae deletion strains, growth OD, locus YDR335W, strain msn5, active compounds read low
Hit rate of the full screen: of about 5,500 compounds, about 2,000 (36%) were called active. Inconclusive results (about 18%) are left out. This is one part of the list.
Binary label based on normalized growth with cut-off 1: below gives 1 (yes), not below gives 0 (no).

Solved cases below.
O=C(O)CCCCC1CCSS1 (stereo not drawn) :: 1 (yes)
CS(=O)(=O)CCCCN=C=S :: 1 (yes)
Cc1occc(=O)c1O :: 1 (yes)
CCN(CC)CCOc1ccc(/C(=C(\Cl)c2ccccc2)c2ccccc2)cc1 :: 1 (yes)
CC/C(=C(\c1ccccc1)c1ccc(OCCN(C)C)cc1)c1ccccc1 :: 1 (yes)
CO[C@H]1/C=C/O[C@@]2(C)Oc3c(C)c(O)c4c(O)c(c(/C=N/N5CCN(C)CC5)c(O)c4c3C2=O)NC(=O)/C(C)=C\C=C\C(C)[C@H](O)[C@@H](C)[C@@H](O)[C@@H](C)[C@@H](OC(C)=O)[C@@H]1C (stereo partly drawn) :: 0 (no)

query: Would you kindly verify if normalized growth of O=C(O)CF is strictly less than 1?
result: 0 (no)

###

assay: chemical genetic growth profiling, strain panel (AID 1159580); details: S. cerevisiae deletion strains, growth OD, locus YLR330W, strain CHS5, active compounds read low
Out of some 5,500 compounds screened, about 2,000 (36%) were called active. Roughly 18% stayed inconclusive and do not appear here. The list shows a part of the results.
What normalized growth was measured for each of the following?
Answers are plain numbers.

Past entries and their recorded results:
Nc1ccc(S(=O)(=O)Nc2ccc(Cl)nn2)cc1 :: 1.01
CCCCC1(COC(=O)CCC(=O)O)C(=O)N(c2ccccc2)N(c2ccccc2)C1=O :: 0.993
C[C@H](N)[C@H](O)c1ccc(O)c(O)c1 :: 0.995
CC(Cc1ccc(O)c(O)c1)C(C)Cc1ccc(O)c(O)c1 (stereo not drawn) :: 0.82
CCCC(C)C1(CC)C(=O)NC(=O)NC1=O (stereo not drawn) :: 1.01

Could you report normalized growth for every entry in the following list?
1. N[C@@H](Cc1ccc(O)c(O)c1)C(=O)O
2. c1ccc2c3c([nH]c2c1)CNCC3
3. Oc1c(Cl)cc(Cl)c2cccnc12
4. CC(=O)c1c(O)c(C)c(O)c2c1OC1=CC(=O)C(C(C)=O)C(=O)C12C (stereo not drawn)
5. Cc1c(O)c(O)cc2c1CC=C1[C@@]2(C)CC[C@@]2(C)C3C[C@](C)(C(=O)O)CC[C@]3(C)CC[C@]12C (stereo partly drawn)

result:
[0.987, 1.01, 0.0519, 1.01, 0.877]

Could you report normalized growth for every entry in the following list?
1. COC(C)(C)CCC[C@H](C)C/C=C/C(C)=C/C(=O)OC(C)C
2. C1CCN2C[C@@H]3C[C@H](CN4CCCC[C@@H]34)[C@H]2C1
3. C=C[C@](C)(O)CCC=C(C)C
4. Nc1ccc(S(=O)(=O)Nc2ccccn2)cc1
5. O=C(CCCCCCCCCCCCC1CCCC1)Nc1ccc(S(=O)(=O)c2ccc(NC(=O)CCCCCCCCCCCCC3CCCC3)cc2)cc1
6. CC(=O)OCC1(C)CCC2(C)CCC3(C)C4=CCc5c(cc(OC(C)=O)c(OC(C)=O)c5C)C4(C)CCC3(C)C2C1 (stereo not drawn)
7. COC(=O)[C@]1(C)CC[C@]2(C)CC[C@]3(C)C4=CCc5c(cc(O)c(O)c5C)[C@]4(C)CC[C@@]3(C)C2C1 (stereo partly drawn)

result:
1.01
1.02
1.02
1
1.02
1.01
0.988

Could you report normalized growth for every entry in the following list?
1. CC(C)(C)NCC(O)c1ccccc1Cl (stereo not drawn)
2. C1CCN2CC3CC(CN4CCCCC34)C2C1 (stereo not drawn)
3. Nc1ncn([C@@H]2O[C@H](CO)[C@@H](O)[C@H]2O)c(=O)n1
4. CCCC(C)C1(CC)C(=O)N=C(S)NC1=O (stereo not drawn)

result:
1: 0.992; 2: 1.01; 3: 1; 4: 1.01

Could you report normalized growth for every entry in the following list?
1. C=C(CC)C(=O)c1ccc(OCC(=O)O)c(Cl)c1Cl
2. C=CCC1(C(C)CCC)C(=O)N=C(S)NC1=O (stereo not drawn)

result:
0.978
0.979

###

What normalized growth was measured for each of the following?
test: chemical genetic growth profiling, strain panel (AID 1159580);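 also: tested at 20 µM; growth read once vehicle control cultures reached saturation at 30 °C; 1 = growth at the plate median or of vehicle wells; lower values mean less growth of the strain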; settings: S. cerevisiae deletion strains, growth OD, locus YJL092W, strain hpr5, active compounds read low
Among all 5,500 compounds or so, about 2,000 (36%) were called active. Another 18% or so got no clear call; they are omitted. This is one part of the list.
Give bare numbers.

Past entries and their recorded results:
CC/C(=C(\c1ccccc1)c1ccc(OCCN(C)C)cc1)c1ccccc1 :: 0.0913
CC(=O)O[C@@H]1C[C@@]2(C)[C@H](c3ccoc3)C[C@H]3O[C@]32[C@]2(C)C(=O)C(O)=C3C(C)(C)C(=O)C=C[C@]3(C)C12 (stereo not given in full) :: 0.945
Oc1ccc(Cl)c2cccnc12 :: 0.0945
Oc1c(I)cc(Cl)c2cccnc12 :: 0.0829
CCCC(C)C1(CC)C(=O)NC(=O)NC1=O (stereo not given) :: 0.995

Could you report normalized growth for every entry in the following list?
1. Cc1ccc2c(Cl)cc(Cl)c(O)c2n1
2. Nc1ncnc2c1ncn2C1C[C@H](O)[C@@H](CO)O1 (stereo not given in full)

result:
1: 1.02; 2: 1.01

Could you report normalized growth for every entry in the following list?
1. COc1cc(C(=O)NCc2ccc(OCCN(C)C)cc2)cc(OC)c1OC
2. CCN(CC)CCNC(=O)c1cc(S(C)(=O)=O)ccc1OC
3. CCC(Cc1c(I)cc(I)c(N)c1I)C(=O)O (stereo not given)
4. OC[C@@H](O)[C@@H](O[C@@H]1O[C@H](CO)[C@@H](O)[C@H](O)[C@H]1O)[C@H](O)[C@@H](O)CO
5. COc1ccc(C(Cl)=C(c2ccc(OC)cc2)c2ccc(OC)cc2)cc1
6. CCN(CC)CCOc1ccc(/C(=C(\Cl)c2ccccc2)c2ccccc2)cc1
7. Nc1ncnc2c1ncn2[C@@H]1O[C@H](CO)[C@@H](O)[C@H]1O
8. O=C(O)CCCCC1CCSS1 (stereo not given)

result:
0.997
0.979
0.942
0.991
1.02
0.193
0.984
0.972

###

assay: chemical genetic growth profiling, strain panel (AID 1159580);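 also: tested at 20 µM; growth read once vehicle control cultures reached saturation at 30 °C; 1 = growth at the plate median or of vehicle wells; lower values mean less growth of the strain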; conditions: S. cerevisiae deletion strains, growth OD, locus YPL240C, strain hsp82, active compounds read low
Hit rate of the full screen: of about 5,500 compounds, about 2,000 (36%) were called active. About 18% were inconclusive and are not listed. This is one part of the list.
Measurement name: normalized growth
Numbers only.

Past entries and their recorded results:
COc1cc(OC)c2c(=O)c(-c3ccccc3)c(C)oc2c1OC :: 0.983
O[N+]1=CC=CCC1=S.On1ccccc1=S.[Zn] :: 0.0591
NC(=NCCC[C@H](N)C(=O)O)NC(CCC(=O)O)C(=O)O (stereo partly specified) :: 1
O=c1[nH]c(=O)n(C2C[C@@H](O)[C@@H](CO)O2)cc1F (stereo partly specified) :: 0.987
OC[C@@H](O)[C@@H](O[C@@H]1O[C@H](CO)[C@@H](O)[C@H](O)[C@H]1O)[C@H](O)[C@@H](O)CO :: 0.997
C=CC(C1=CC(=O)C(OC)=CC1=O)c1ccc(OC)cc1 (stereo unspecified) :: 0.851
O=C(O)C1=CCNCC1 :: 1
C=C(C)C1CC=C(CO)CC1 (stereo unspecified) :: 0.959

Could you report normalized growth for every entry in the following list?
1. CCOC(=O)c1oc2c(OC)c(O)cc(O)c2c(=O)c1-c1cc(OC)c(OC)c(OC)c1
2. CC(=O)Nc1ccc(S(=O)(=O)c2ccc(NC(C)=O)cc2)cc1
3. C=CC(C1=CC(=O)C(OC)=CC1=O)c1ccccc1 (stereo unspecified)

result:
1. 0.964
2. 1
3. 0.904

###

What normalized growth was measured for each of the following?
experiment: chemical genetic growth profiling, strain panel (AID 1159580);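 also: tested at 20 µM; growth read once vehicle control cultures reached saturation at 30 °C; 1 = growth at the plate median or of vehicle wells; lower values mean less growth of the strain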; conditions: S. cerevisiae deletion strains, growth OD, locus YNL183C, strain NPR1, active compounds read low
About 2,000 (36%) of roughly 5,500 compounds were called active. About 18% were inconclusive and are not listed. This is one part of the list.
Numbers only.

Past entries and their recorded results:
CCCc1c(C(=O)NNc2cccc(Cl)c2)cnn1-c1ccccc1 :: 0.98
N[C@@H](Cc1ccc(O)c(O)c1)C(=O)O :: 0.923
O=C(c1ccc2ccccc2c1)N1CCN(c2ccnc3cc(Cl)ccc23)CC1 :: 0.953
C[C@H](N)[C@H](O)c1ccc(O)c(O)c1 :: 0.963
FC(F)(F)c1cccc(NC(=S)Nc2csc(C(F)(F)F)c2-c2ccccc2)c1 :: 0.976

query: Report normalized growth for CCCc1c(C(=O)Sc2ccccn2)cnn1-c1ccc(Cl)cc1 please.
result: 0.881
